# Tested on: A549/ATCC NSCLC
# Run description: NCI-60 one-dose screen, 48 h
# Experimental context: 10 µM unless noted
Compounds without any hit were thinned out: in the full panel of roughly 83,000, 20% have a hit. Calls of active or inactive are those of the source. How the source made its calls: active means growth percent below 10; inactive means the rest.
Log the outcome using a class from active, inactive

Some entries whose results are on file:
COc1c(F)ccc(C(=O)Nc2ccc3nc(NC(=O)C4CCCN(S(=O)(=O)C5CC5)C4)sc3c2)c1F (centres undefined) :: inactive
O=C(N/N=C/c1ccc(-c2ccc(O)cc2)o1)c1[nH]c2ccc(Br)cc2c1-c1ccccc1 :: inactive
C=C1CC[C@@H]2[C@]3(C)COC(c4cn[nH]c4-c4ccc(OC)cc4)O[C@@H]3CC[C@@]2(C)[C@@H]1C/C=C1/C(=O)OCC1O (some centres undefined) :: active

Dear colleague, could you share the recorded outcome for `COc1ccc(C(=O)/C=C/c2cccc(Cl)c2Cl)cc1S(N)(=O)=O` when you have a moment?
active
